These data points were gathered from patent US20100184809A1.

Experiment: Rat hepatocyte stability assay
Type: in vitro ADME
Settings: hepatocytes, 37° C., 60 minute, read-out: Rat hepatocyte clearance
Property: hepatocyte CLint; scope: individual compounds
Could you give the number and then its unit, please?

- compound: "CC(C)c1onc(-c2c(Cl)cccc2Cl)c1COc1ccc(N(C)C(=O)c2ccc(-c3nnn[nH]3)cc2)c(C(F)(F)F)n1"
  hepatocyte CLint: "2.5 µL/min/1e6 cells"
- compound: "CC(C)c1onc(-c2c(Cl)cccc2Cl)c1COc1ccc(/C=C/c2cccc(C(=O)O)c2)c(Cl)c1 [Compound B, reference compound]"
  hepatocyte CLint: "45 µL/min/1e6 cells"

Exam item: Query: hepatocyte CLint; subject: `CC(C)c1onc(-c2c(Cl)cccc2Cl)c1COc1ccc(N(C)C(=O)c2ccc(C(=O)O)cc2)c(C(F)(F)F)n1`
Marked response: 0.7 µL/min/1e6 cells

Exam item: Query: hepatocyte CLint; subject: `Cc1nc(OCc2c(-c3c(Cl)cccc3Cl)noc2C(C)C)ccc1N(C)S(=O)(=O)c1ccc(C(=O)O)cc1`
Marked response: 7.1 µL/min/1e6 cells

---

Property: melting point; scope: individual molecules

Below, 3 molecules whose answers are already recorded.
- structure.string: "CC(C)c1onc(-c2c(Cl)cccc2Cl)c1COc1ccc(N(C)C(=O)c2ccc(C(=O)N(C)C)cc2)c(C(F)(F)F)n1"
  result: "166.8 to 167.8 °C"
- structure.string: "Cc1cc(OCc2c(-c3c(Cl)cccc3Cl)noc2C(C)C)cnc1NC(=O)c1ccc(C(=O)O)cc1"
  result: "218 °C"
- structure.string: "CC(C)c1onc(-c2c(Cl)cccc2Cl)c1COc1ccc(N(C)Cc2ccc(C(=O)O)cc2)c(C(F)(F)F)n1"
  result: "96.1 to 97.1 °C"

--- query ---
Exam item: Query: melting point; subject: `Cc1nc(OCc2c(C(C)C)nnn2-c2c(Cl)cccc2Cl)ccc1N(C)S(=O)(=O)c1ccc(C(=O)O)cc1`
Marked response: 127.8 to 128.8 °C

---

Experiment: Plasma protein binding assay (equilibrium dialysis)
Assay type: in vitro ADME
Details: 37° C., extrapolated fraction unbound
Property: fraction unbound; scope: individual compounds
Form: value (number only, do not type unit).

Below, 6 compounds whose answers are already recorded.
- compound: "CC(C)c1onc(-c2c(Cl)cccc2Cl)c1COc1ccc(NC(=O)c2ccc(C(=O)O)cc2)c(C(F)(F)F)n1"
  fraction unbound: 0.0005
- compound: "Cc1cc(OCc2c(-c3c(Cl)cccc3Cl)noc2C(C)C)cnc1NC(=O)c1ccc(C(=O)O)cc1"
  fraction unbound: 0.003
- compound: "CC(C)c1onc(-c2c(Cl)cccc2Cl)c1COc1ccc(N(C)C(=O)c2ccc(-c3nnn[nH]3)cc2)c(C(F)(F)F)n1"
  fraction unbound: 0.0004
- compound: "Cc1onc(-c2c(Cl)cccc2Cl)c1COc1ccc(NC(=O)c2cccc(C(=O)O)c2)cn1"
  fraction unbound: 0.0003
- compound: "Cc1onc(-c2c(Cl)cccc2Cl)c1COc1ccc(NC(=O)c2cccc(C(=O)O)c2)cc1 [Compound C, reference compound]"
  fraction unbound: 0.0001
- compound: "Cc1nc(OCc2c(-c3c(Cl)cccc3Cl)noc2C(C)C)ccc1N(C)S(=O)(=O)c1ccc(C(=O)O)cc1"
  fraction unbound: 0.0003

Exam item: Query: fraction unbound; subject: `CC(C)c1onc(-c2c(Cl)cccc2Cl)c1COc1ccc(N(C)C(=O)c2ccc(C(=O)O)cc2)c(C(F)(F)F)n1`
Marked response: 0.005

Exam item: Query: fraction unbound; subject: `CC(C)c1onc(-c2c(Cl)cccc2Cl)c1COc1ccc(N(C)C(=O)c2ccc(C(=O)N(C)C)cc2)c(C(F)(F)F)n1`
Marked response: 0.0009

---

Biological target: human FXRalpha ligand binding domain (LBD) (Homo sapiens, UniProt Q96RI1)
Construct: made in house; host or cells: E. coli BL21(DE3), vector pDEST15
Sequence (Q96RI1 187-472 isoform Q96RI1-2): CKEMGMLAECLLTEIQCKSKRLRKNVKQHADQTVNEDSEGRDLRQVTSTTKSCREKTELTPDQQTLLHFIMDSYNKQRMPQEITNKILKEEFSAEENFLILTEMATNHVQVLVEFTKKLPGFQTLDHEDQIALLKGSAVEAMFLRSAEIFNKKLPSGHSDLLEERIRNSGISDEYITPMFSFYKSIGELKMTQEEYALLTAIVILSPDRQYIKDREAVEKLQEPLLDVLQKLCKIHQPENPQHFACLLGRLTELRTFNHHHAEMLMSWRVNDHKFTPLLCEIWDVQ
Experiment: FRET activity assay (ligand mediated cofactor peptide interaction, LANCE)
Type: biochemical
Details: GST-FXR-LBD / biotinylated SRC-1 peptide (676-700)
pIC50: −log10 of the molar value.
measured.quantity: pIC50

Below, 6 compounds whose answers are already recorded.
- structure.string: "Cc1nc(OCc2c(C(C)C)nnn2-c2c(Cl)cccc2Cl)ccc1N(C)S(=O)(=O)c1ccc(C(=O)O)cc1"
  tested.target: "human FXRalpha ligand binding domain (LBD) (Homo sapiens, UniProt Q96RI1)"
  result: "≥ 6.00"
- structure.string: "CC(C)c1onc(-c2c(Cl)cccc2Cl)c1COc1ccc(N(C)S(=O)(=O)c2ccc(C(=O)O)cc2)c(C(F)(F)F)n1"
  tested.target: "human FXRalpha ligand binding domain (LBD) (Homo sapiens, UniProt Q96RI1)"
  result: "≥ 6.00"
- structure.string: "COc1nc(OCc2c(-c3c(Cl)cccc3Cl)noc2C(C)C)ccc1N(C)S(=O)(=O)c1ccc(C(=O)O)cc1"
  tested.target: "human FXRalpha ligand binding domain (LBD) (Homo sapiens, UniProt Q96RI1)"
  result: "≥ 6.00"
- structure.string: "Cc1onc(-c2c(Cl)cccc2Cl)c1COc1ccc(NC(=O)c2ccc(C(=O)O)cc2)cn1"
  tested.target: "human FXRalpha ligand binding domain (LBD) (Homo sapiens, UniProt Q96RI1)"
  result: "5.00 to 6.00"
- structure.string: "COc1nc(OCc2c(-c3c(Cl)cccc3Cl)noc2C(C)C)ccc1N(C)C(=O)c1ccc(C(=O)O)cc1"
  tested.target: "human FXRalpha ligand binding domain (LBD) (Homo sapiens, UniProt Q96RI1)"
  result: "5.00 to 6.00"
- structure.string: "COC(=O)c1cccc(C(=O)Nc2ccc(OCc3c(-c4c(Cl)cccc4Cl)noc3C(C)C)nc2C(F)(F)F)c1"
  tested.target: "human FXRalpha ligand binding domain (LBD) (Homo sapiens, UniProt Q96RI1)"
  result: "5.00 to 6.00"

Exam item: Query: pIC50; subject: `CC(C)c1onc(-c2c(Cl)cccc2Cl)c1COc1ccc(NS(=O)(=O)c2ccc(C(=O)O)cc2)c(C(F)(F)F)n1`
Marked response: 5.00 to 6.00

---

Property: pIC50; scope: individual compounds
Target: human FXRalpha ligand binding domain (LBD) (Homo sapiens, UniProt Q96RI1)
Assay: FRET activity assay (ligand mediated cofactor peptide interaction, LANCE)
Details: GST-FXR-LBD / biotinylated SRC-1 peptide (676-700)
Method: Determination of a ligand mediated cofactor peptide interaction to quantify ligand binding to the nuclear receptor Farnesoid X Receptor (FXR) was performed as follows: Preparation of human farnesoid X receptor (FXR) alpha ligand binding domain: The human FXRalpha ligand binding domain (LBD) was expressed in E. coli strain BL21(DE3) as an N-terminally glutathione-[…] (GST) tagged fusion protein. […] The protein was analysed by SDS-Page. […]
pIC50: −log10 of the molar value.

- compound: "Cc1nc(OCc2c(-c3c(Cl)cccc3Cl)noc2C(C)C)ccc1NS(=O)(=O)c1ccc(C(=O)O)cc1"
  tested.target: "human FXRalpha ligand binding domain (LBD) (Homo sapiens, UniProt Q96RI1)"
  pIC50: "≥ 6.00"
- compound: "COc1nc(OCc2c(-c3c(Cl)cccc3Cl)noc2C(C)C)ccc1NC(=O)c1ccc(C(=O)O)cc1"
  tested.target: "human FXRalpha ligand binding domain (LBD) (Homo sapiens, UniProt Q96RI1)"
  pIC50: "≥ 6.00"

Exam item: Query: pIC50; subject: `Cc1onc(-c2c(Cl)cccc2Cl)c1COc1ccc(NC(=O)c2cccc(C(=O)O)c2)cn1`
Marked response: 5.00 to 6.00

Exam item: Query: pIC50; subject: `Cc1onc(-c2c(Cl)cccc2Cl)c1COc1ccc(NS(=O)(=O)c2cccc(C(=O)O)c2)cn1`
Marked response: 5.00 to 6.00

Exam item: Query: pIC50; subject: `Cc1onc(-c2c(Cl)cccc2Cl)c1COc1ccc(NS(=O)(=O)c2ccc(C(=O)O)cc2)cn1`
Marked response: 5.00 to 6.00

Exam item: Query: pIC50; subject: `Cc1cc(OCc2c(-c3c(Cl)cccc3Cl)noc2C(C)C)ncc1NC(=O)c1ccc(C(=O)O)cc1`
Marked response: ≥ 6.00

Exam item: Query: pIC50; subject: `Cc1nc(OCc2c(-c3c(Cl)cccc3Cl)noc2C(C)C)ccc1NC(=O)c1ccc(C(=O)O)cc1`
Marked response: ≥ 6.00

Exam item: Query: pIC50; subject: `CC(C)c1onc(-c2c(Cl)cccc2Cl)c1COc1ccc(N(C)Cc2ccc(C(=O)O)cc2)c(C(F)(F)F)n1`
Marked response: ≥ 6.00

Exam item: Query: pIC50; subject: CC(C)c1onc(-c2c(Cl)cccc2Cl)c1COc1ccc(N(C)Cc2ccc(C(=O)OCC(O)CO)cc2)c(C(F)(F)F)n1 (stereo not drawn)
Marked response: ≥ 6.00
